Assay: probe aNog binding to arrayed compounds – biochemical, biotinylated probe, 635/667 nm fluorescence, primary screen (AID 1115);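 also: probe is biotinylated aNog protein used at 0.15 µg/mL for 1 h at 4 C; z-score combines 667 nm fluorescence of each spot with its signal to noise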
Conditions: small-molecule microarray, higher = more signal
Quick rule for you: composite z-score at 0.3 or higher means 1.0, lower means 0.0.

The examples below pair each entry with its known result.
CC(C)NC(=O)[C@@H]1c2ccccc2C(=O)N(C2CCCCC2)[C@H]1c1ccc(CO)cc1; 1.0
CN1C(=O)C2C=CC(C(O)C(c3ccccc3)c3ccccc3)N(Nc3ccccc3)C2C1=O (configuration not stated); 1.0

Alright, here's another molecule for you.
Item CC(C)C(CO)N1C(=O)[C@@H]2[C@H]3C(=O)OCC=C[C@H]3OC23C=CCN(c2ccc4ccccc4c2)C(=O)[C@@H]13 (some centres not stated) with composite z-score of 0.3 or above?
0.0
